# system: T1, mouse B7-H4 (recombinant, BLI) (mouse, UniProt Q7TSP5 29-256, limits assumed)
# T1 construct: also called murine B7-H4
# T1 sequence: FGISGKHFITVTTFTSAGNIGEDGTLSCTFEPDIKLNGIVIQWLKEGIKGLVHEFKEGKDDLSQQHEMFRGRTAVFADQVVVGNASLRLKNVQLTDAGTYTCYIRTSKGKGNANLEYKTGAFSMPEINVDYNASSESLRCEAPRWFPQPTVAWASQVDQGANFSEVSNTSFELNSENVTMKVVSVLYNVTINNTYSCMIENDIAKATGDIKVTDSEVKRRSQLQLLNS
# measurement.notes: BLI, antigen on Protein A tips;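 also: Anti-B7-H4 antibodies assessed for affinity toward the B7-H4 extracellular domain using biolayer interferometry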
Entries annotated with measured koff
Quick reminder: number only, in s⁻¹, skip the unit.

Here is how some binders turned out for koff.
[Q] Name the recorded koff of the binder listed here: B7-H4 antibody 20506 (antibody, V domains shown, human IgG1/kappa) VH: QLQLQESGPGLVKPSETLSLTCTASGGSISHGGYYWSWIRQHPGKGLEWIGNIYYSGSTYYNPSLKSRVTMSVDTSKNQFSLKLSSVTAADTAVYYCARESSTISADFDLWGRGTLVTVSS VL: DIQMTQSPSSVSASVGDRVTITCRASQGISRWLAWYQQKPGKAPKLLIYAASSLQSGVPSRFSGSGSGTDFTLTISSLQPEDFATYYCQQAHTFPYTFGGGTKVEIKR
[A] 0.00164

[Q] Name the recorded koff of the binder listed here: B7-H4 antibody 15465 (antibody, human IgG1, kappa, V domains shown, human IgG1/kappa) VH: QVQLQESGPGLVKPSQTLSLTCTVSGGSISSGGYYWSWIRQHPGKGLEWIGNIYYSGSTYYNPSLKSRVTISVDTSKNQFSLKLSSVTAADTAVYYCARESSTISADFDLWGRGTLVTVSS VL: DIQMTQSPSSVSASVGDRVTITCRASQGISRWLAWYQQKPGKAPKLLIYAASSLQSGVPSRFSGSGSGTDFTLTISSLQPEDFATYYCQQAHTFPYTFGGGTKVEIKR
[A] 0.0265

[Q] Name the recorded koff of the binder listed here: B7-H4 antibody 22208 (antibody, human IgG1, kappa, V domains shown, human IgG1/kappa) VH: QLQLQESGPGLVKPSETLSLTCTVSGGSIKSGSHYWGWIRQPPGKGLEWIGNIYYSGSTYYNPSLKSRVTMSVDTSKNQFSLKLSSVTAADTAVYYCAREGSYPNWFDPWGQGTLVTVSS VL: EIVMTQSPATLSVSPGERATLSCRASQSVSTNLAWYQQKPGQAPRLLIYDASARVTGIPARFSGSGSGTEFTLTISSLQSEDFAVYYCQQYHSFPFTFGGGTKVEIKR
[A] 0.00167

Others:
[Q] Name the recorded koff of the binder listed here: B7-H4 antibody 20501 (antibody, human IgG1, kappa, V domains shown, human IgG1/kappa) VH: QLQLQESGPGLVKPSETLSLTCTVSGGSIKSGSHYWGWIRQPPGKGLEWIGNIYYSGSTYYNPSLKSRVTISVDTSKNQFSLKLSSVTAADTAVYYCAREGSYPNWLDPWGQGTLVTVSS VL: EIVMTQSPATLSVSPGERATLSCRASQSVSSNLAWYQQKPGQAPRLLIYGASTRATGIPARFSGSGSGTEFTLTISSLQSEDFAVYYCQQYHSFPFTFGGGTKVEIKR
[A] 0.00375

[Q] Name the recorded koff of the binder listed here: B7-H4 antibody 20502.1 (antibody, human IgG1, kappa, V domains shown, human IgG1/kappa) VH: QLQLQESGPGLVKPSETLSLTCTVSGGSIKSGSYYWGWIRQPPGKGLEWIGNIYYSGSTYYNPSLKSRVTISVDTSKNQFSLKLSSVTAADTAVYYCAREGSYPNQFDPWGQGILVTVSS VL: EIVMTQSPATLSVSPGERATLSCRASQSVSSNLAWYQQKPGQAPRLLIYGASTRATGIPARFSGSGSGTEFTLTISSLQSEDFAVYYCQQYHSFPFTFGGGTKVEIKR
[A] 0.00207
